# assay_system: human cloned CHRM4 receptor (Homo sapiens)
# Construct: expressed in transfected cells; host or cells: CHO-K1 (M4_CHO)
# Sequence (P08173 whole entry): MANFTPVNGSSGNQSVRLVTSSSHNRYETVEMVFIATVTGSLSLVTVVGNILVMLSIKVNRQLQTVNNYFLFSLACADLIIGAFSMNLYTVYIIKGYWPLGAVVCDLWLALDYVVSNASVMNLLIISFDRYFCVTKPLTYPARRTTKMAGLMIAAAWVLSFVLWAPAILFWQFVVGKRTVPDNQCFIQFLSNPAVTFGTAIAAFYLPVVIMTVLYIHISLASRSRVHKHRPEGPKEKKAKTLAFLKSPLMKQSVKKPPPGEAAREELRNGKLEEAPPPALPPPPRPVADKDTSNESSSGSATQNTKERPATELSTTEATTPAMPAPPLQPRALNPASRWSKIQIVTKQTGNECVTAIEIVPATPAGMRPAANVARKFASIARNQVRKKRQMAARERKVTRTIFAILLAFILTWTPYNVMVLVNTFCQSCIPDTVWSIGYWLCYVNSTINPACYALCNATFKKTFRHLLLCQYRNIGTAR
# experiment_description: CHRM4 Ca++ Flux Assay (M4_CHO cells, agonist mode)
# Assay type: cell-based
# stated_conditions: Percent Activity (PA), read-out: M4 FDSS PA %
Counter-ions that a name gives are not always drawn.
Note to self: class = bucket of Emax, per class A (below 70%), class B (70% to below 80%), class C (80% or more)

molecule=Fc1cc(OCC2(F)COC2)c(C2CCN([C@@H]3COC4(C3)CN(c3ncco3)C4)CC2)cc1F class_label="class A"
molecule=CC(C)(O)COc1ccc(F)cc1C1CCN([C@@H]2COC3(C2)CN(c2ncco2)C3)CC1 class_label="class A"
molecule=COCCOc1ccc(F)cc1C1CCN([C@@H]2COC3(C2)CN(c2ncns2)C3)CC1 class_label="class A"
molecule=Fc1ccc(OC2CC3(COC3)C2)c(C2CCN([C@H]3COC4(C3)CN(c3nnco3)C4)CC2)c1 class_label="class A"
molecule=Fc1ccc(C2CCOCC2)c(C2CCN([C@@H]3COC4(C3)CN(c3nnco3)C4)CC2)c1 class_label="class C"
molecule="Fc1ccc(OCC2C3COCC32)c(C2CCN([C@@H]3COC4(C3)CN(c3nnco3)C4)CC2)c1 (stereo partly shown)" class_label="class A"
molecule=COCCOc1ccc(F)cc1C1CCN([C@@H]2COC3(C2)CN(c2nnco2)C3)CC1 class_label="class B"
molecule=Fc1cc(O[C@@H]2CCOC2)c(C2CCN([C@@H]3COC4(C3)CN(c3nnco3)C4)CC2)cc1F class_label="class B"
molecule="c1ccc(C2CCN([C@@H]3COC4(C3)CN(c3nncs3)C4)CC2)c(OC2COC2)c1 [Example 5Q, formate salt]" class_label="class C"
